assay: Selectivity index, ratio of Ki for human CatL to Ki for Trypanosoma brucei rhodesiense rhodesain
Listing: Ratio Ki of selected compounds

- compound: "N#CC1(NC(=O)[C@@H]2Cc3ccc(c(Cl)c3)OCC#CCOc3c(F)cc(F)cc3C(=O)N2)CC1 (single isomer, unassigned; atropisomer 2)"
  Ratio Ki: 0.3
- compound: "Cn1cc(-c2cc3ccc2OCCCCOc2cc(C(F)(F)F)ccc2C(=O)N[C@H](C(=O)NC2(C#N)CC2)C3)cn1"
  Ratio Ki: 0.8
- compound: "N#CC1(NC(=O)[C@@H]2Cc3ccc(c(-c4cccnc4)c3)OCCCCOc3cc(C(F)(F)F)ccc3C(=O)N2)CC1"
  Ratio Ki: 1.1
- compound: "N#CC1(NC(=O)[C@@H]2Cc3ccc(c(Cl)c3)OC/C=C/COc3cc(-c4cnn(C(F)F)c4)ccc3C(=O)N2)CC1 (mixture of isomers)"
  Ratio Ki: 1.4
- compound: "CC(C)(C)c1cc2nn1CC/C=C/COc1ccc(cc1Cl)C[C@@H](C(=O)NC1(C#N)CC1)NC2=O"
  Ratio Ki: 0.1
- compound: "N#CC1(NC(=O)[C@@H]2Cc3ccc(c(Cl)c3)OC/C=C/CCn3nc(cc3-c3ccccc3)C(=O)N2)CC1"
  Ratio Ki: 11
- compound: "N#CC1(NC(=O)[C@@H]2Cc3ccc(c(-c4cccnc4)c3)OCCCCOc3ccccc3C(=O)N2)CC1"
  Ratio Ki: 1.2
- compound: "Cc1cc2nn1CC/C=C/COc1ccc(cc1Cl)C[C@@H](C(=O)NC1(C#N)CC1)NC2=O (mixture of isomers)"
  Ratio Ki: 0.8
- compound: "N#CC1(NC(=O)[C@@H]2Cc3ccc(c(Cl)c3)OC/C=C/CCn3nc(cc3C3CC3)C(=O)N2)CC1"
  Ratio Ki: 0.1
- compound: "N#CC1(NC(=O)[C@@H]2Cc3ccc(c(Cl)c3)OC/C=C/COc3cc4ccccc4cc3C(=O)N2)CC1 (mixture of isomers)"
  Ratio Ki: 1.2
- compound: "N#CC1(NC(=O)[C@@H]2Cc3ccc(c(Cl)c3)OC/C=C/Cn3c(=O)c(cc4cc(Cl)ccc43)C(=O)N2)CC1 (mixture of isomers)"
  Ratio Ki: 0.9
- compound: "CS(=O)(=O)c1ccc2c(c1)C(=O)N[C@H](C(=O)NC1(C#N)CC1)Cc1ccc(c(Cl)c1)OC/C=C/CO2"
  Ratio Ki: 0.6
- compound: "CS(=O)(=O)c1ccc2c(c1)C(=O)N[C@H](C(=O)NC1(C#N)CC1)Cc1ccc(c(Cl)c1)OC[C@H]1O[C@@H]1CO2 (mixture of isomers)"
  Ratio Ki: 0.03
- compound: "N#CC1(NC(=O)[C@@H]2Cc3ccc(c(Cl)c3)OC/C=C/COc3cc(C(F)(F)F)ccc3C(=O)N2)CC1"
  Ratio Ki: 0.1
- compound: "N#CC1(NC(=O)[C@@H]2Cc3ccc(c(I)c3)OCCCCOc3cc(C(F)(F)F)ccc3C(=O)N2)CC1"
  Ratio Ki: 0.1
- compound: "N#CC1(NC(=O)[C@@H]2Cc3ccc(c(I)c3)OC/C=C/COc3cc(C(F)(F)F)ccc3C(=O)N2)CC1 (mixture of isomers)"
  Ratio Ki: 0.6
- compound: "N#CC1(NC(=O)[C@@H]2Cc3ccc(c(Cl)c3)OCC#CCOc3c(F)cc(F)cc3C(=O)N2)CC1 (single isomer, unassigned; atropisomer 1)"
  Ratio Ki: 0.3
- compound: "N#CC1(NC(=O)[C@@H]2Cc3ccc(c(Cl)c3)OC/C=C/COc3ccc(-c4ccc(F)cc4)cc3C(=O)N2)CC1 (mixture of isomers)"
  Ratio Ki: 7.8
- compound: "N#CC1(NC(=O)[C@@H]2Cc3ccc(c(-c4cc[nH]n4)c3)OCCCCOc3ccccc3C(=O)N2)CC1"
  Ratio Ki: 1
